Test system: HOP-92 NSCLC
METHOD: NCI tumour cell line growth inhibition, 48 h
READOUT TYPE: TGI

As a guide, the following entries are already answered.
In [3]: df
Out[3]:
                                   compound  reported_result
0  OC[C@H]1CC(c2nn[nH]n2)[C@H](O)[C@@H]1O (stereo partly specified)         > 100 µM
1  CC(NC1CCC[C@H]1O)c1ccccc1 (mixture of isomers)         > 100 µM
2  CC1CC(=O)C(C(O)CC2CC(=O)N(c3ccccc3)C(=O)C2)C(C)C1 (stereo unspecified)         > 100 µM

input: Query: TGI; subject: CSc1s[s+]c(SC)c1[O-]
output: > 100 µM

input: For N/C(=N\C(=S)N1CCCCC1)N1CCCCC1 , what is its reported TGI?
output: > 100 µM

# credit: PubChem BioAssay (NCI)
